TARGET OR SYSTEM: T1, B3GNT2 (Homo sapiens, UniProt Q9NY97)
T1 construct: The respective ORFs of candidate genes [CD274 (NM_014143), MCL1 (NM_021960), JUNB (NM_002229), and B3GNT2 (NM_006577)] were synthesized; expressed in transfected cells; host or cells: A375 melanoma cells (lentiviral ORF overexpression)
T1 sequence (Q9NY97 1-397): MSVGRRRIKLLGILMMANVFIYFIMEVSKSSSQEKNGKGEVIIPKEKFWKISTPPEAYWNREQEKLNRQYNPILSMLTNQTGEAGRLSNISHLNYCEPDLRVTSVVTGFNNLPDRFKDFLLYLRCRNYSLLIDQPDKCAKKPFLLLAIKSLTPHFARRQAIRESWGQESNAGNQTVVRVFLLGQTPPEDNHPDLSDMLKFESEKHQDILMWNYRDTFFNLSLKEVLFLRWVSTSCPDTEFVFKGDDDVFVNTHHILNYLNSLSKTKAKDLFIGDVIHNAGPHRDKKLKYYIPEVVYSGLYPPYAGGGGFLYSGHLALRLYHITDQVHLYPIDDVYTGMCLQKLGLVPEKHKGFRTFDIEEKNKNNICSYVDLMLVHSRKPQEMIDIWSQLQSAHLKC
TEST DESCRIPTION: Co-IP of FLAG-tagged B3GNT2 followed by mass spectrometry
Assay type: cell-based
Design: unit not given here
MEASUREMENT PARAMETERS: Co-IP followed by mass spectrometry of B3GNT2; C-term tag, IgG pull-down
OBSERVED PROPERTY: C-term IgG
// return just the number, without any unit appended

Please give the documented C-term IgG of TXN (protein) VKQIESKTAFQEALDAAGDKLVVVDFSATWCGPCKMIKPFFHSLSEKYSNVIFLEVDVDDCQDVASECEVKCMPTFQFFKKGQKVGEFSGANKEKLEATINELV
0

Please give the documented C-term IgG of PSMA3 (protein) SSIGTGYDLSASTFSPDGRVFQVEYAMKAVENSSTAIGIRCKDGVVFGVEKLVLSKLYEEGSNKRLFNVDRHVGMAVAGLLADARSLADIAREEASNFRSNFGYNIPLKHLADRVAMYVHAYTLYSAVRPFGCSFMLGSYSVNDGAQLYMIDPSGVSYGYWGCAIGKARQAAKTEIEKLQMKEMTCRDIVKEVAKIIYIVHDEVKDKAFELELSWVGELTNGRHEIVPKDIREEAEKYAKESLKEEDESDDDNM
0

Please give the documented C-term IgG of CALML5 (protein) AGELTPEEEAQYKKAFSAVDTDGNGTINAQELGAALKATGKNLSEAQLRKLISEVDSDGDGEISFQEFLTAAKKARAGLEDLQVAFRAFDQDGDGHITVDELRRAMAGLGQPLPQEELDAMIREADVDQDGRVNYEEFARMLAQE
0
